Hello, the source for this data is ChEMBL document CHEMBL1255531, in case you need it.

ASSAY SYSTEM: Mitogen-activated protein kinase 14 (Homo sapiens, UniProt Q16539)
Sequence (Q16539 whole entry): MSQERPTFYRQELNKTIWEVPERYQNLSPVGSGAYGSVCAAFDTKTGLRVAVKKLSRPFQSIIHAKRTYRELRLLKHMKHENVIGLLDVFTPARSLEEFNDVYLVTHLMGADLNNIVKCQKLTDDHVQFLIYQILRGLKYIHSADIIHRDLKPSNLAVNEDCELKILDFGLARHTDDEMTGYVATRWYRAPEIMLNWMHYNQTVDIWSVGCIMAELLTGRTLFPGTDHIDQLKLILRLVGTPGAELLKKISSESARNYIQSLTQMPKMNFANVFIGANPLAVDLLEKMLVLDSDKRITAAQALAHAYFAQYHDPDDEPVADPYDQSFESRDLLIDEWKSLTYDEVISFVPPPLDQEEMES
RUN DESCRIPTION: Inhibition of bacterially expressed activated p38alpha pre-incubated 10 mins measured after 45 mins by scintillation counting
Listing of entries alongside the reported IC50.
Enter your answer as a number in nM; do not include the unit.

Worked examples follow.
{"columns": ["COMPOUND STRING", "OUTCOME MEASURE", "RECORDED VALUE"],
 "data": [
  ["Clc1ccccc1-c1cc(-c2cnc(NC3CCC3)s2)nc(-c2ccccn2)n1", "IC50", 16],
  ["CC(C)Nc1ncc(-c2cc(-c3ccccc3Cl)nc(NCCN(C)C)n2)s1", "IC50", 5],
  ["CCCNc1ncc(-c2cc(-c3ccc(F)cc3Cl)nc(-c3ccccn3)n2)s1", "IC50", 42]
]}

Query compound follows.
What value of IC50 has been recorded for this entry: CC[C@@H](C)Nc1ncc(-c2cc(-c3ccccc3Cl)nc(-c3ccccn3)n2)s1
5
